These data points were gathered from patent US7144876B2.

# Test system: T-47D
# PROTOCOL_DETAILS: Caspase cascade activation assay (N-(Ac-DEVD)-N'-ethoxycarbonyl-R110 fluorogenic substrate) in solid tumor cells
# Format: cell-based, Human
# SETTINGS: T-47D cells, 48 h incubation; ratio of net RFU of test compound to that of control samples
Each record's class is read off its Caspase activity (Ratio) using these ranges: group 1: < 6; group 2: ≥ 6 and < 10; group 3: ≥ 10

**Query** GET /class?item= Cc1cccnc1-c1noc(-c2occc2Br)n1 [Example 57]
**Result** group 2

**Query** Record N#Cc1cc(-c2noc(-c3sccc3Cl)n2)ccc1Cl [Example 7] — which class?
**Result** group 1

**Query** Form field 'band' for Clc1ccsc1-c1nc(N2CCCCC2)no1 [Example 18]
**Result** group 1

**Query** For this molecule, which bin applies? Cc1cccnc1-c1noc(-c2sccc2Cl)n1 [Example 47]
**Result** group 1

**Query** # bin label for Nc1cc(-c2noc(-c3sccc3Cl)n2)ccc1Cl [Example 1]
**Result** group 3

**Query** Category of CN(C)c1cc(-c2noc(-c3sccc3Cl)n2)ccc1Cl [Example 2] :
**Result** group 3

**Query** Record Fc1cc(-c2noc(-c3sccc3Cl)n2)ccc1Cl [Example 9] — which class?
**Result** group 2

**Query** Note: place this molecule into its band. Item: Cc1cc(Cl)ccc1-c1noc(-c2occc2Br)n1 [Example 49]
**Result** group 3

----------
# System: T-47D
# PROTOCOL_DETAILS: Caspase cascade activation assay (N-(Ac-DEVD)-N'-ethoxycarbonyl-R110 fluorogenic substrate) in solid tumor cells
# Format: cell-based, Human
# SETTINGS: T-47D cells, 48 h incubation; ratio of net RFU of test compound to that of control samples
ENDPOINT_LABEL: Caspase activity (Ratio)
Provide a numeric answer; units are not to be included.

The cases that follow already have their Caspase activity (Ratio) on record.
Cc1cc(Cl)ccc1-c1noc(-c2sccc2Cl)n1 ... 7.9
Clc1ccc(C=Cc2noc(-c3sccc3Cl)n2)cc1 ... 4.4
CC1CCN(c2noc(-c3sccc3Cl)n2)CC1 ... 5.4

Consider the additional compound presented here.
**Query** Provide measured Caspase activity (Ratio) on T-47D for CN(C)c1cc(-c2noc(-c3occc3Br)n2)ccc1Cl please.
**Result** 11.9
